Origin of measurements: patent US11173151B2

target: human V1a receptor (Homo sapiens); construct: expressed in transfected cells; host or cells: CHO K1 (ATCC), also stably transfected with a modified aequorin; assay: Cellular in vitro assay for determining vasopressin receptor activity, V1a receptor cell line (CHO, aequorin luminescence); assay type: cell-based; settings: selectivity ratio IC50 hV2 / IC50 hV1a
Sequence (P37288 whole entry): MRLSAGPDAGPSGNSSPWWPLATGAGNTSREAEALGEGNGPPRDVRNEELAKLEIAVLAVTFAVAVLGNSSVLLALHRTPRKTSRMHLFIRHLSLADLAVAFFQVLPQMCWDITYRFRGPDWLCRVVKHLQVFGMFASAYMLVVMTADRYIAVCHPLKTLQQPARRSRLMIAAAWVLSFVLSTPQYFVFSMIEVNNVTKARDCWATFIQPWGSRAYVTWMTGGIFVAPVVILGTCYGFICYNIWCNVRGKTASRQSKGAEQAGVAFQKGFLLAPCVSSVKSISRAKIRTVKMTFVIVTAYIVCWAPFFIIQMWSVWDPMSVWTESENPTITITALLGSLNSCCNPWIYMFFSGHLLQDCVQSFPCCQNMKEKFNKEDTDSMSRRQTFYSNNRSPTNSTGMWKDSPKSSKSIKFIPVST
property measured: ratio IC50 hV2/hV1a

A selection of reference data follows.
CC1(NC(=O)c2ncccc2-n2cnc(Cn3nc(-c4ccc(Cl)cc4)n(C[C@H](O)C(F)(F)F)c3=O)n2)CC1 ... 272.7
O=C(c1ncccc1-n1cnc(Cn2nc(-c3ccc(Cl)cc3)n(C[C@@H](O)C(F)(F)F)c2=O)n1)N1CCC[C@H]1C(F)(F)F ... 23.9
O=C1CN(C(=O)c2nc(Cn3nc(-c4ccc(Cl)cc4)n(C[C@H](O)C(F)(F)F)c3=O)nn2-c2cnccc2C(=O)NCC(F)(F)F)CCN1 ... 0.9
NC(=O)[C@H]1CC(F)(F)CN1C(=O)c1ncccc1-n1cnc(Cn2nc(-c3ccc(Cl)cc3)n(C[C@@H](O)C(F)(F)F)c2=O)n1 ... 290.9
O=C(Nc1ncccc1-n1cnc(Cn2nc(-c3ccc(Cl)cc3)n(C[C@H](O)C(F)(F)F)c2=O)n1)C1CCOCC1 ... 10.7

(I) O=C(Nc1ncccc1-n1cnc(Cn2nc(-c3ccc(Cl)cc3)n(C[C@H](O)C(F)(F)F)c2=O)n1)c1ccccc1F
(II) O=C(NCC(O)C(F)(F)F)c1cccc(Cl)c1-n1cnc(Cn2nc(-c3ccc(Cl)cc3)n(C[C@@H](O)C(F)(F)F)c2=O)n1 (mixture of isomers)
(III) O=C(c1cccc(Cl)c1-n1cnc(Cn2nc(-c3ccc(Cl)cc3)n(C[C@@H](O)C(F)(F)F)c2=O)n1)N1CCC[C@@H]1C(F)(F)F
Output the entries ranked by ratio IC50 hV2/hV1a from maximum down to minimum. Give the labels in the order specified.
III, I, II
(III: 36.5, I: 14.7, II: 6.0)

(1) Cc1noc(NC(=O)c2ccccc2-n2cnc(Cn3nc(-c4ccc(Cl)cc4)n(C[C@H](O)C(F)(F)F)c3=O)n2)c1C
(2) CN(C(=O)c1ccccc1-n1cnc(Cn2nc(-c3ccc(Cl)cc3)n(C[C@H](O)C(F)(F)F)c2=O)n1)C1CCCCC1
Lower value for measured ratio IC50 hV2/hV1a? Options: 1 , 2 # respond with the chosen item's label
1
(1: 31.5, 2: 171.9)

(A) O=C(NC1CC1)c1ncccc1-n1cnc(Cn2nc(-c3ccc(Cl)cc3)n(C[C@H](O)C(F)(F)F)c2=O)n1
(B) O=C(Nc1cccnc1-n1cnc(Cn2nc(-c3ccc(Cl)cc3)n(C[C@H](O)C(F)(F)F)c2=O)n1)C1CC1F (single isomer, unassigned) [Example 61]
Recorded ratio IC50 hV2/hV1a values differ for A and B ; which one is higher? API: response body contains the label of the selected item.
B
(B: 111.5, A: 66.7)
